Consider the following compounds; for each one, report its TGI.
system: HS 578T breast; test: NCI tumour cell line growth inhibition, 48 h

- Cc1[nH]n(-c2nc3c(c(=O)[nH]2)CCC3)c(=O)c1CCO: > 100 µM

# map each compound to its TGI
1. CC[C@H](Nc1nc(N)nc(N)c1Cl)c1nc2cccc(NCc3ccc(C(=O)NO)cc3)c2c(=O)n1-c1ccccc1
2. O=c1n(-c2ccccc2)c(=O)n2n1C1CCC2CC1
3. COc1ccc2c(c1)N(C(C)=O)CN1C(=O)CCC21 (centres undefined)
4. CN(C)c1ccc(/C=C2\N=C(N/N=C/c3ccccc3)NC2=O)cc1
5. COc1cc(C2CC(c3ccc4c(c3)OCO4)=NN2C(C)=O)cc(OC)c1OC (centres undefined)
6. CCOc1ccc(N/C(=C(/C(Cl)=C(/Cl)NCCO)[N+](=O)[O-])n2nnc3ccccc32)cc1
7. COc1ccc2nc3cc([N+](=O)[O-])ccc3c(NNc3ccc(Cl)cc3)c2c1
8. O=C1C(Cl)=C(Nc2cccc(C(F)(F)F)c2)C(=O)N1Cc1ccccc1Cl

1. 10.9 µM
2. > 100 µM
3. > 100 µM
4. > 100 µM
5. > 74.1 µM
6. 38.8 µM
7. > 100 µM
8. 43.5 µM

Sourced from PubChem BioAssay (NCI)
